SYSTEM_UNDER_TEST: peroxisome proliferator-activated receptor gamma (PPARγ) (Homo sapiens, UniProt P37231)
Sequence (P37231 223-505 limits assumed): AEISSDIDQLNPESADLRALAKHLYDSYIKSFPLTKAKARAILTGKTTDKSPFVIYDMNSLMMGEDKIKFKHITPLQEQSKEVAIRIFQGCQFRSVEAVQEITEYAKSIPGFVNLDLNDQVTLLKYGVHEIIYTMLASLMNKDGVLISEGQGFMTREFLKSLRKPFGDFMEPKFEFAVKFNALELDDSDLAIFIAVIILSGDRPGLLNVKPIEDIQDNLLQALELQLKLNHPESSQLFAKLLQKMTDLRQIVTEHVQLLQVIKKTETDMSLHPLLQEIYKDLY
ASSAY_TEXT: fluorescence polarization probe displacement
VALUE_TYPE: IC50 (µM)
One number for each entry, in µM.

Query: Please supply the value of reported IC50 for the item O=c1c(-c2ccc(O)cc2)coc2cc(O)cc(O)c12
Response: 23.9
